TEST: chemical genetic growth profiling, strain panel (AID 1159580);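 further: tested at 20 µM; growth read once vehicle control cultures reached saturation at 30 °C; 1 = growth at the plate median or of vehicle wells; lower values mean less growth of the strain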
EXPERIMENTAL CONDITIONS: S. cerevisiae deletion strains, growth OD, locus YOR061W, strain CKA2, hits give low values
The campaign covered roughly 5,500 compounds. About 2,000 (36%) were called active. About 18% were inconclusive and are not listed. The list shows a part of the results.
Can you tell me normalized growth for the items I'm about to list?
One number for each entry.

These solved cases illustrate the format of a correct answer.
Q: Given "CC(=O)N[C@@H](Cc1c[nH]c2ccccc12)C(N)=O" , state its recorded normalized growth.
Result: 0.969

Q: Given CC(Cc1cccc(C(F)(F)F)c1)NCCOC(=O)c1ccccc1 (stereo not given) , state its recorded normalized growth.
Result: 0.994

Q: Given "NCC(=O)c1ccccc1" , state its recorded normalized growth.
Result: 1.01

Q: Given "O=C(O)c1cc(O)c2c(c1)[C@@H]([C@H]1c3cc(C(=O)O)cc(O)c3C(=O)c3c(O[C@H]4O[C@H](CO)[C@@H](O)[C@H](O)[C@H]4O)cccc31)c1cccc(O[C@H]3O[C@H](CO)[C@@H](O)[C@H](O)[C@H]3O)c1C2=O" , state its recorded normalized growth.
Result: 1.02

Q: Given C#CCSC1=NNC(c2ccccn2)S1 (stereo not given) , state its recorded normalized growth.
Result: 0.183

Q: Given CC(C)c1ccc2c(c1)CCC1C(C)(C(N)=O)CCCC21C (stereo not given) , state its recorded normalized growth.
Result: 0.885

Could you report normalized growth for every entry in the following list?
1. Clc1ccc(CN2CCN(c3cccc4[nH]ccc34)CC2)cc1Cl
2. O=C1c2cccc3c(Sc4ccccc4)ccc(c23)C(=O)N1NCCO

Result:
0.955
0.877

Could you report normalized growth for every entry in the following list?
1. CCCSc1ccc2nc(NC(=O)OC)[nH]c2c1
2. Oc1c(Cl)cc(Cl)cc1Sc1cc(Cl)cc(Cl)c1O
3. O=C(OCc1ccccc1)c1ccccc1
4. CCCOc1ccc2nc(NC(=O)OC)[nH]c2c1
5. CC1(C)CC2C1CC[C@]1(CBr)CCC3C(CC(=O)O)C(=O)O[C@@]32C1 (stereo not given in full)
6. CC1=CC(=O)c2ccccc2C1=O
7. OC(COc1ccc(F)cc1)(c1ccc(Cl)cc1)c1ccc(Cl)cc1

Result:
[0.996, 0.994, 0.988, 0.992, 0.972, 0.05, 0.988]

Could you report normalized growth for every entry in the following list?
1. CN(C)C(=O)Oc1cccc([N+](C)(C)C)c1
2. CCN(CC)CCOC(=O)C1(C2CCCCC2)CCCCC1
3. CS(=O)(=O)Nc1ccc([N+](=O)[O-])cc1Oc1ccccc1
4. O=C(CSC1=NNC(c2ccccn2)S1)Nc1ccccc1 (stereo not given)
5. C=C1C[C@]23C[C@@]1(O)CC[C@H]2[C@@]12C=C[C@H](O)[C@@](C)(C(=O)O1)[C@H]2[C@@H]3C(=O)O

Result:
0.987
1
0.964
0.96
0.962

Could you report normalized growth for every entry in the following list?
1. CC(=O)OCC(=O)[C@@]1(O)[C@H](C)CC2C3CCC4=CC(=O)C=C[C@]4(C)[C@@]3(F)[C@@H](O)C[C@@]21C (stereo not given in full)
2. N=C(N)N
3. CCC(C)[C@H]1O[C@]2(C=C[C@@H]1C)C[C@@H]1C[C@@H](C/C=C(\C)[C@@H](OC3C[C@H](OC)C(O[C@H]4C[C@H](OC)[C@@H](O)[C@H](C)O4)[C@H](C)O3)[C@@H](C)/C=C/C=C3\CO[C@@H]4[C@H](O)C(C)=C[C@@H](C(=O)O1)[C@]34O)O2 (stereo not given in full)
4. CCC(C)C(=O)OC1[C@@H]2CC3=C4CC(=O)O[C@@H](c5ccoc5)[C@]4(C)CCC3[C@@](C)(C2=O)[C@@H](CC(=O)OC)C1(C)C (stereo not given in full)

Result:
1: 1.02; 2: 0.991; 3: 0.891; 4: 0.995
